For each of the compounds below, state its IC50 of cell viability.
tested on: MTT (mouse pheochromocytoma); test: IC50 of cell viability (ATP content); settings: (24 or 48 h)
Where a name gives a salt, the structure may show the parent alone.

Sample CCC(=O)OC1CCC2C3CCc4cc(O)ccc4C3CCC12C (configuration not stated) ; IC50 of cell viability observed: > 46 µM

Sample CCN(CC)CCOc1ccc2c(c1)C(=O)c1cc(OCCN(CC)CC)ccc1-2 ; IC50 of cell viability observed: > 46 µM

Sample CCON=O ; IC50 of cell viability observed: > 46 µM

Sample CCCCC[C@H](O)/C=C\[C@@H]1[C@H](O)CC(=O)[C@@H]1CCCCCCC(=O)O ; IC50 of cell viability observed: > 46 µM

Sample CCOCCOC(C)=O [2-Ethoxyethyl acetate] ; IC50 of cell viability observed: > 46 µM

Sample CCCCC/C=C\C/C=C\C/C=C\CCCCC(=O)O ; IC50 of cell viability observed: > 46 µM

Sample NC[C@@H]1O[C@H](OC2[C@@H](CO)O[C@@H](OC3[C@H](O)[C@H](N)C[C@H](N)[C@H]3OC3O[C@H](CO)[C@@H](O)[C@H](O)[C@@H]3N)[C@H]2O)C(N)[C@H](O)[C@@H]1O (some centres not stated) [PAROMOMYCIN SULFATE] ; IC50 of cell viability observed: > 46 µM

====

tested on: MTT (mouse pheochromocytoma); assay: IC50 of cell viability (ATP content); conditions: (24 or 48 h)
Experimental endpoint: IC50 of cell viability

Sample Oc1ccc(Cl)c2c1CCC2 ; IC50 of cell viability observed: > 46 µM

Sample N=C(N)NCCCC(NC(=O)C1CCCN1C(=O)C1CSSCC(N)C(=O)NC(Cc2ccc(O)cc2)C(=O)NC(Cc2ccccc2)C(=O)NC(CCC(N)=O)C(=O)NC(CC(N)=O)C(=O)N1)C(=O)NCC(N)=O (stereo not given) [[8-Arginine]vasopressin] ; IC50 of cell viability observed: > 46 µM

Sample CCCCCCCCCCCCCCCCCC(=O)OCC(O)CO (stereo not given) [GLYCERYL MONOSTEARATE] ; IC50 of cell viability observed: > 46 µM

Sample C[C@@H](C(=O)O)c1ccc(-c2ccccc2)c(F)c1 ; IC50 of cell viability observed: > 46 µM

Sample CC(C)(C)c1ccc2c(S(=O)(=O)[O-])c(C(C)(C)C)ccc2c1 ; IC50 of cell viability observed: > 46 µM

====

For each of the compounds below, state its IC50 of cell viability.
tested on: MTT (mouse pheochromocytoma); test: IC50 of cell viability (ATP content); settings: (24 or 48 h)
Counter-ions that a name gives are not always drawn.

Sample CC1O[C@@H](CC(O)[C@H]1O[C@H]2CC(O)[C@@H](O[C@H]3CC(OC(C)=O)[C@H](O[C@H]4OC(CO)C(O)C(O)C4O)[C@@H](C)O3)C(C)O2)OC5CC[C@]6(C)C(CCC7C6CC(O)[C@@]8(C)C(CC[C@@]78O)\C9=C\C(=O)OC9)C5 (stereo partly drawn) [LANATOSIDE C] ; IC50 of cell viability observed: > 46 µM

Sample COc1ccc(C(=O)Nc2ccccc2CCC2CCCCN2C)cc1 (stereo not drawn) [Encainide hydrochloride] ; IC50 of cell viability observed: > 46 µM

Sample CCC[C@H]1C[C@H](C(=O)N[C@@H]([C@@H]2O[C@@H](SC)[C@@H](O)[C@@H](O)[C@H]2O)[C@H](C)Cl)N(C)C1 [Clindamycin hydrochloride] ; IC50 of cell viability observed: > 46 µM
